# assayed.system: acetylcholine receptor
# assay.summary: SPR, AchR immobilised on CM5 chip, peptide 10 uM
measurement.type: Binding affinity (RU)
Answers are plain numbers, in RU.

Returns the measured Binding affinity (RU) for the input binder. Input: RMMARR [6mer-2-796]
32

Provide Binding affinity (RU) for all items below, preserving their order.
1. KCAVKK [6mer-2-697]
2. RKFKNK [6mer-1-964]
3. KEWWRR [6mer-2-678]
4. RTWKKR [6mer-2-716]

1. 19
2. 42
3. 32
4. 18

Provide Binding affinity (RU) for all items below, preserving their order.
1. RREDFR [6mer-1-968]
2. KDSVRR [6mer-2-737]
3. RKKDIK [6mer-1-935]
4. KINWRR [6mer-2-752]
5. KPTNRK [6mer-2-756]
6. KPNMKK [6mer-2-770]

1. 39
2. 19
3. 40
4. 29
5. 26
6. 24
